biological target: 5-hydroxytryptamine receptor 6 (Homo sapiens, UniProt P50406); assay: Displacement of [3H]-LSD from recombinant human 5HT6 receptor expressed in HEK293 cells measured after 1 hr by microbeta counting method
Sequence (P50406 whole entry): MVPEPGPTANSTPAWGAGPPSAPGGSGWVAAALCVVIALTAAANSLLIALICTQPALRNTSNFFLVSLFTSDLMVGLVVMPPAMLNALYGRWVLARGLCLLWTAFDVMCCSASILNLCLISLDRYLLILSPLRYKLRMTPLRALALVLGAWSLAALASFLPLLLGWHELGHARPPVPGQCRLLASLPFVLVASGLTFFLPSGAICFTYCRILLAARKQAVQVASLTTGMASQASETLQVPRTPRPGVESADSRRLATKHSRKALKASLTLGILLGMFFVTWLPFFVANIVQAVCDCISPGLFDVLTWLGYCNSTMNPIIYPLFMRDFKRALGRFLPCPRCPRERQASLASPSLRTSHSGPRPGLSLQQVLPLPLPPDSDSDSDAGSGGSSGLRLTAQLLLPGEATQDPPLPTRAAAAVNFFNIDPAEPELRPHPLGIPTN
pKi: −log10 of the molar value.
recordedEndpoint: pKi

Please review the entries below; each comes with its answer.
O=C1c2cccc3cccc(c23)C(=O)N1CCCCCCN1CCN(c2ccccc2[N+](=O)[O-])CC1    5.85
COc1cccc(N2CCN(CCCCCCN3C(=O)c4cccc5cccc(c45)C3=O)CC2)c1    6.46
O=[N+]([O-])c1ccccc1N1CCN(CCCCCCN2c3cccc4cccc(c34)S2(=O)=O)CC1    6.31

1. O=C1c2cccc3cccc(c23)N1CCCCCCN1CCN(c2ccccc2[N+](=O)[O-])CC1
2. O=C1c2cccc3cccc(c23)C(=O)N1CCCCCCN1CCN(c2ccccn2)CC1
Ask: For the two items 1 and 2 , which reports the higher pKi value? Returns: label corresponding to the selected item.
Reply: 1
(1: 6.02, 2: 5.71)

* * *

target: 5-hydroxytryptamine receptor 7 (Homo sapiens); test: Displacement of [3H]-5-CT from recombinant human 5HT7B receptor expressed in HEK293 cells measured after 1 hr by microbeta counting method
Sequence (P34969 whole entry): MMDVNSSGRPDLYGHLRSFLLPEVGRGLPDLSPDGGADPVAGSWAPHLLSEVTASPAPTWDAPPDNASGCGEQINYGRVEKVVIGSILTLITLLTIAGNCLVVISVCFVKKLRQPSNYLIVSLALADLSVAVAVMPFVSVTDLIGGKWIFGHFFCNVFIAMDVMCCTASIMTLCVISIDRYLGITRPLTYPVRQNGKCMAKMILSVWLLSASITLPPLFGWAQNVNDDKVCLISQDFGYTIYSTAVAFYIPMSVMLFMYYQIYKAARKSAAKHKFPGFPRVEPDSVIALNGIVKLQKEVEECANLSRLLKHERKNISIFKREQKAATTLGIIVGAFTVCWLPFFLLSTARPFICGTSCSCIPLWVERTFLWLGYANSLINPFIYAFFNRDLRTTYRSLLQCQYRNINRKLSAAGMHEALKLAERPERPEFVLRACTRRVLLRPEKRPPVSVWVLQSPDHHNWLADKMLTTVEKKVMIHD
recordedEndpoint: Ki (nM)

Before answering, review these 2 worked examples.
O=C1c2cccc3cccc(c23)N1CCCCCCN1CCN(c2ncccn2)CC1    475
COc1ccccc1N1CCN(CCCCCCn2c(=O)n3c4c(cccc42)CCC3)CC1    291

I. O=C1c2cccc3cccc(c23)N1CCCCCCN1CCN(c2cccc3cccnc23)CC1
II. O=C1c2cccc3cccc(c23)N1CCCCCCN1CCN(c2ccccn2)CC1
III. O=S1(=O)c2cccc3cccc(c23)N1CCCCCCN1CCN(c2ccccn2)CC1
Ask: Order these by Ki, descending, and give the full ranking. Answer format: the labels, ordered as requested.
Reply: III, II, I

a. COc1cccc(N2CCN(CCCCCCN3C(=O)c4cccc5cccc3c45)CC2)c1
b. COc1ccc(N2CCN(CCCCCCN3C(=O)c4cccc5cccc(c45)C3=O)CC2)cc1
c. O=C1c2cccc3cccc(c23)C(=O)N1CCCCCCN1CCN(c2ccccn2)CC1
Ask: // sort entries: Ki, high to low Provide the labels, sequenced as the question asks.
Reply: b, c, a
(b: 116000 nM, c: 1200 nM, a: 366 nM)

A. COc1ccccc1N1CCN(CCCCCCN2C(=O)c3cccc4cccc(c34)C2=O)CC1
B. CCOc1ccccc1N1CCN(CCCCCCN2c3cccc4cccc(c34)S2(=O)=O)CC1
C. O=C1c2cccc3cccc(c23)C(=O)N1CCCCCCN1CCN(c2ccccc2[N+](=O)[O-])CC1
D. COc1ccc(N2CCN(CCCCCCN3C(=O)c4cccc5cccc3c45)CC2)cc1
Ask: # rank_down: sort by Ki, max first Reply with the item labels sorted in the order that was asked for.
Reply: D, C, A, B

* * *

biological target: 5-hydroxytryptamine receptor 1A (Homo sapiens); assay: Displacement of [3H]-8-OHDPAT from recombinant human 5HT1A receptor expressed in HEK293 cells measured after 1 hr by microbeta counting method
Sequence (P08908 whole entry): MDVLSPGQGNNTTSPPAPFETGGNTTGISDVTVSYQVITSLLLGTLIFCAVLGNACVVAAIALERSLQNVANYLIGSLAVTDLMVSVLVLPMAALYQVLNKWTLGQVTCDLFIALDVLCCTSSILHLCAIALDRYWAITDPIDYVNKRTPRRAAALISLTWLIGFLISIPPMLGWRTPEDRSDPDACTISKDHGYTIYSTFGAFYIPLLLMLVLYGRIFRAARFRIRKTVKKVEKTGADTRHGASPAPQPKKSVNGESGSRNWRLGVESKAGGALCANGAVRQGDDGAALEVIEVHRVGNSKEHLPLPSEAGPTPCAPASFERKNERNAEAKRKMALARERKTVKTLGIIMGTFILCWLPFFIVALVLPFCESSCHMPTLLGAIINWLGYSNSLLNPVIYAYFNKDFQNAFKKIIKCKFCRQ
pKi: −log10 of the molar value.
recordedEndpoint: pKi

1. CCOc1ccccc1N1CCN(CCCCCCN2C(=O)c3cccc4cccc(c34)C2=O)CC1
2. O=[N+]([O-])c1ccccc1N1CCN(CCCCCCN2c3cccc4cccc(c34)S2(=O)=O)CC1
3. COc1ccc(N2CCN(CCCCCCN3C(=O)c4cccc5cccc(c45)C3=O)CC2)cc1
Ask: Lab note: rank above entries, pKi ascending. Answer by listing the labels in the requested order.
Reply: 3, 2, 1

* * *

biological target: 5-hydroxytryptamine receptor 2A (Homo sapiens); experiment: Displacement of [3H]-ketanserin from recombinant human 5HT2A receptor expressed in CHOK1 cells measured after 1 hr by microbeta counting method
Sequence (P28223 whole entry): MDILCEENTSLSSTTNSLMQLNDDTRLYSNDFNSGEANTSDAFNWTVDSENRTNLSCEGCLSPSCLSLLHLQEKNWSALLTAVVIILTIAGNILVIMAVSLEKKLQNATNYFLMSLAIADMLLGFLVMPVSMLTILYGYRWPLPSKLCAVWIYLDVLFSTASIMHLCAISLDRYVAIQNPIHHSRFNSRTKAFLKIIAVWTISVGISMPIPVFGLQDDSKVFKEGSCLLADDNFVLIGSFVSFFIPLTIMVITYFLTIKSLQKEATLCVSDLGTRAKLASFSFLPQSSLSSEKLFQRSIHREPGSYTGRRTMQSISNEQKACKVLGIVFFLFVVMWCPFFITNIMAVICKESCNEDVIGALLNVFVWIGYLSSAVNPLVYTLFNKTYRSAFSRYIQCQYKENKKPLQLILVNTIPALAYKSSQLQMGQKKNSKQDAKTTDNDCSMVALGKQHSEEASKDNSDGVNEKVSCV
recordedEndpoint: Ki (nM)

O=C1c2cccc3cccc(c23)C(=O)N1CCCCCCN1CCN(c2ccccn2)CC1    563
O=S1(=O)c2cccc3cccc(c23)N1CCCCCCN1CCN(c2ccccn2)CC1    443

I. CCOc1ccccc1N1CCN(CCCCCCN2c3cccc4cccc(c34)S2(=O)=O)CC1
II. O=C1c2cccc3cccc(c23)N1CCCCCCN1CCN(c2ccccn2)CC1
Ask: Compare reported Ki values for I and II . Which is lower? Your answer should be the label of the entry you select.
Reply: I
(I: 578 nM, II: 892 nM)

* * *

target: 5-hydroxytryptamine receptor 1A (Homo sapiens); test: Displacement of [3H]-8-OHDPAT from recombinant human 5HT1A receptor expressed in HEK293 cells measured after 1 hr by microbeta counting method
pKi: −log10 of the molar value.
recordedEndpoint: pKi

CCOc1ccccc1N1CCN(CCCCCCN2c3cccc4cccc(c34)S2(=O)=O)CC1    7.32

I. O=C1c2cccc3cccc(c23)C(=O)N1CCCCCCN1CCN(c2ccccc2[N+](=O)[O-])CC1
II. O=C1c2cccc3cccc(c23)N1CCCCCCN1CCN(c2ncccn2)CC1
Ask: Name the one with the greater pKi value, either I or II as given. Field: selected label. Fill in the label of the entry you choose.
Reply: II

* * *

biological target: 5-hydroxytryptamine receptor 6 (Homo sapiens); assay: Displacement of [3H]-LSD from recombinant human 5HT6 receptor expressed in HEK293 cells measured after 1 hr by microbeta counting method
recordedEndpoint: Ki (µM)

Examples with their reported Ki follow.
COc1cccc(N2CCN(CCCCCCN3C(=O)c4cccc5cccc3c45)CC2)c1    1.7
O=C1c2cccc3cccc(c23)N1CCCCCCN1CCN(c2ccccn2)CC1    1.46

P. COc1ccc(N2CCN(CCCCCCN3C(=O)c4cccc5cccc3c45)CC2)cc1
Q. O=S1(=O)c2cccc3cccc(c23)N1CCCCCCN1CCN(c2ccccn2)CC1
R. CCOc1ccccc1N1CCN(CCCCCCN2C(=O)c3cccc4cccc2c34)CC1
S. CCOc1ccccc1N1CCN(CCCCCCN2c3cccc4cccc(c34)S2(=O)=O)CC1
Ask: Arrange the 4 molecules by rising Ki, starting with the smallest. Your reply should list the labels following the order given in the request.
Reply: Q, S, R, P

* * *

target: 5-hydroxytryptamine receptor 7 (Homo sapiens); assay: Displacement of [3H]-5-CT from recombinant human 5HT7B receptor expressed in HEK293 cells measured after 1 hr by microbeta counting method
recordedEndpoint: Ki (nM)

CCOc1ccccc1N1CCN(CCCCCCN2C(=O)c3cccc4cccc(c34)C2=O)CC1    73

I. CCOc1ccccc1N1CCN(CCCCCCN2C(=O)c3cccc4cccc2c34)CC1
II. O=C1c2cccc3cccc(c23)N1CCCCCCN1CCN(c2ccccc2[N+](=O)[O-])CC1
III. COc1cccc(N2CCN(CCCCCCN3C(=O)c4cccc5cccc(c45)C3=O)CC2)c1
Ask: Ascending by Ki, please: list the compounds accordingly. State the ranking by listing the labels in the requested order.
Reply: I, III, II
